- Tested on: ANGPTL3 gene
- experiment: ANGPTL3 gRNA/SpCas9 editing in primary cynomolgus hepatocytes (Table 3)
- Type: cell-based, cynomolgus monkey
Cyno Primary Hepatocyte Editing % 100 ng/mL: recorded values
Give the figure together with its unit, number first.

Below are worked cases with known answers.
# molecule, measuredResult
measured = [
    ("GA111: ANGPTL3 gRNA; protospacer GCCAATGGCCTCCTTCAGTT (SEQ ID NO: 109) (nucleic acid, 2'-O-methyl at 1, 2, other sugars and backbone not given here; further chemistry not fully specified) guide: GCCAATGGCCTCCTTCAGTTGTTTTAGAGCTAGAAATAGCAAGTTAAAATAAGGCTAGTCCGTTATCAACTTGAAAAAGTGGCACCGAGTCGGTGCTTTT", "22.61%"),
    ("GA108: ANGPTL3 gRNA; protospacer TCCCAACTGAAGGAGGCCAT (SEQ ID NO: 106) (nucleic acid, 2'-O-methyl at 1, 2, other sugars, backbone and T or U not given here; further chemistry not fully specified) guide: UCCCAACTGAAGGAGGCCATGTTTTAGAGCTAGAAATAGCAAGTTAAAATAAGGCTAGTCCGTTATCAACTTGAAAAAGTGGCACCGAGTCGGTGCTTTT", "4.11%"),
]

# next molecule below
Supply measured Cyno Primary Hepatocyte Editing % 100 ng/mL of GA143: ANGPTL3 gRNA; protospacer TTAATTCAACATCGAATAGA (SEQ ID NO: 141) (nucleic acid, 2'-O-methyl at 1, 2, other sugars, backbone and T or U not given here; further chemistry not fully specified) guide: UUAATTCAACATCGAATAGAGTTTTAGAGCTAGAAATAGCAAGTTAAAATAAGGCTAGTCCGTTATCAACTTGAAAAAGTGGCACCGAGTCGGTGCTTTT in your reply.
14.84%
